B1: library; numbered along this chain (parent)
chain: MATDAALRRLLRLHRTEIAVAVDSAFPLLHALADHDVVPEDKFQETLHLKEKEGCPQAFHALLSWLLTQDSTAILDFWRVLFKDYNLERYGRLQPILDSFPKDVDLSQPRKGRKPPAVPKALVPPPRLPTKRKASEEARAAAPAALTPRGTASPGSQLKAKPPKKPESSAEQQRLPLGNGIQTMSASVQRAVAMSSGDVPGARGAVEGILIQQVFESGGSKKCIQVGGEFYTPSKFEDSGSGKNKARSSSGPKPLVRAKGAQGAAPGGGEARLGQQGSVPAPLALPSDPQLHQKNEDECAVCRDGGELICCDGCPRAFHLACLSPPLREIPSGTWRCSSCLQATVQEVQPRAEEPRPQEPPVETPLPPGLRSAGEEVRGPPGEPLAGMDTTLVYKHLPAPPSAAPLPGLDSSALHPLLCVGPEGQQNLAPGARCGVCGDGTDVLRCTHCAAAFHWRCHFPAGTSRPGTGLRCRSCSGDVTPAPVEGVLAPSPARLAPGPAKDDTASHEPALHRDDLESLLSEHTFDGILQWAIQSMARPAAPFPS

variants of: B1; test: AIRE transcriptional activation functional score (insulin promoter-GFP; nonsense median 0, synonymous median 1) (normalised score); higher = higher AIRE activity (more reporter activation); details: with insulin promoter-GFP reporter in HEK293
Categorize each record by its AIRE transcriptional activation functional score using one: < 0.3; two: ≥ 0.3 and < 1; three: ≥ 1

S332C :: two

Please find the next variant below.
QUERY: Class for P154G ?
RESULT: two
